endpointLabel: melting point

// query // Input: FC(F)(F)c1ccc(Cn2c(-c3ccccc3)ccc2-c2ccc3cc(OCc4nnn[nH]4)ccc3c2)cc1 [Example 9] . Output its melting point only.
// result 173 to 175 °C

// query Quickly give me recorded melting point for c1ccc(-c2ccc(-c3ccc4cc(OCc5nnn[nH]5)ccc4c3)n2-c2ccccc2)cc1 [Example 11]
// result 269 to 270 °C (dec.)

// query Report melting point for O=C(O)c1ccc(COc2ccc3cc(-c4ccc(-c5ccccc5)n4-c4ccccc4)ccc3c2)cc1 [Example 15]
// result 309 to 310 °C

// query Read off the recorded melting point for O=C(O)COc1ccc2cc(-c3ccc(-c4ccccc4)n3Cc3ccc(C(F)(F)F)cc3)ccc2c1 [Example 10]
// result 154 to 156 °C

// query # return recorded melting point for input O=C(O)c1ccc(COc2ccc3cc(-c4ccc(-c5ccccc5)[nH]4)ccc3c2)c(C(=O)O)c1 [Example 17]
// result 289 to 291 °C

// query Respond only with melting point recorded for O=C(O)C(Cc1ccccc1)Oc1ccc2cc(-c3ccc(-c4ccccc4)[nH]3)ccc2c1 (centres unmarked) [Example 1]
// result 176 to 178 °C

// query Specify measured melting point for c1ccc(-c2ccc(-c3ccc4cc(OCc5nnn[nH]5)ccc4c3)[nH]2)cc1 [Example 3] .
// result 237 to 240 °C (dec.)

// query Return melting point (reported value) for this molecule: O=C(O)COc1ccc2cc(-c3ccc(-c4ccccc4)n3Cc3ccccc3)ccc2c1 [Example 6]
// result 171 to 172 °C

###

- measurementTarget: recombinant human plasminogen activator inhibitor-1 (PAI-1) (Homo sapiens, UniProt P05121)
- Construct: purchased Molecular Innovations, Royal Oak, Mich
- Sequence (P05121 24-402): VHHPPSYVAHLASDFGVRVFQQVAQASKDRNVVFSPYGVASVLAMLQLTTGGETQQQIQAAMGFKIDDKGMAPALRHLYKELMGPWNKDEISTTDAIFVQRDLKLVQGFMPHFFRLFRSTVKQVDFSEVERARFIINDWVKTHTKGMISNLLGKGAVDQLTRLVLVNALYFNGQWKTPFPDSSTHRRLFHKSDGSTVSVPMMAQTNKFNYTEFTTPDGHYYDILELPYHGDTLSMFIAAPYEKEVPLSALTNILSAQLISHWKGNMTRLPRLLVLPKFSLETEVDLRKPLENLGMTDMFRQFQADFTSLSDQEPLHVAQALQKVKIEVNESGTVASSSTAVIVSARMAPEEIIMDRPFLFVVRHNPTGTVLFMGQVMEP
- assayMethodText: Primary screen for PAI-1 inhibition (chromogenic tPA activity, Spectrozyme-tPA)
- Type: biochemical
- experimentalSetup: test compound 10 μM; 140 nM PAI-1, 70 nM tPA, pH 6.6
Lab note: compare inhibition at 10 µM against 20%. Equal or greater, write YES. Smaller, write NO.

// query Decide: inhibition at 10 µM of `O=C(O)c1ccc(COc2ccc3cc(-c4ccc(-c5ccccc5)n4-c4ccccc4)ccc3c2)cc1` >= 20%?
// result YES

// query Does the compound O=C(O)C(Cc1ccccc1)Oc1ccc2cc(-c3ccc(-c4ccccc4)n3Cc3ccc(C(F)(F)F)cc3)ccc2c1 (centres unmarked) have recorded inhibition at 10 µM that is 20% or more?
// result YES

// query Test whether the compound `c1ccc(-c2ccc(-c3ccc4cc(OCc5nnn[nH]5)ccc4c3)n2-c2ccccc2)cc1` records inhibition at 10 µM of 20% or higher.
// result YES

// query # bool: inhibition at 10 µM of `O=C(O)COc1ccc2cc(-c3ccc(-c4ccccc4)n3-c3ccccc3)ccc2c1` >= 20%
// result YES

// query Is reported inhibition at 10 µM greater than or equal to 20% here: O=C(O)C(Cc1ccccc1)Oc1ccc2cc(-c3ccc(-c4ccccc4)n3-c3ccccc3)ccc2c1 (centres unmarked)
// result YES

// query # bool: inhibition at 10 µM of `O=C(O)COc1ccc2cc(-c3ccc(-c4ccccc4)n3Cc3ccccc3)ccc2c1` >= 20%
// result NO

// query Given the entry O=C(O)C(Cc1ccccc1)Oc1ccc2cc(-c3ccc(-c4ccccc4)[nH]3)ccc2c1 (centres unmarked) , answer whether its inhibition at 10 µM meets or surpasses 20%.
// result NO

// query Can `O=C(O)COc1ccc2cc(-c3ccc(-c4ccccc4)n3Cc3ccc(C(F)(F)F)cc3)ccc2c1` be said to have inhibition at 10 µM at or above 20%?
// result YES

// query Textbook exercise: given the entry `c1ccc(Cn2c(-c3ccccc3)ccc2-c2ccc3cc(OCc4nnn[nH]4)ccc3c2)cc1` , state whether its inhibition at 10 µM is greater than or equal to 20%.
// result NO

// query Does `c1ccc(-c2ccc(-c3ccc4cc(OCc5nnn[nH]5)ccc4c3)[nH]2)cc1` have a reported inhibition at 10 µM of at least 20%?
// result NO

// query Exam item: decide whether the reported inhibition at 10 µM for `O=C(O)c1ccc(COc2ccc3cc(-c4ccc(-c5ccccc5)n4Cc4ccc(C(F)(F)F)cc4)ccc3c2)cc1` is at least 20%.
// result YES

// query Check the entry `Cn1c(-c2ccccc2)ccc1-c1ccc2cc(OCc3nnn[nH]3)ccc2c1` : does inhibition at 10 µM equal or exceed 20%?
// result NO

// query Entry Cn1c(-c2ccccc2)ccc1-c1ccc2cc(OC(Cc3ccccc3)C(=O)O)ccc2c1 (centres unmarked) : is its inhibition at 10 µM no less than 20%?
// result YES

// query Could you verify whether the entry `FC(F)(F)c1ccc(Cn2c(-c3ccccc3)ccc2-c2ccc3cc(OCc4nnn[nH]4)ccc3c2)cc1` shows inhibition at 10 µM of no less than 20%?
// result YES

// query hey, is inhibition at 10 µM for this one >= 20%? `O=C(O)c1ccc(COc2ccc3cc(-c4ccc(-c5ccccc5)[nH]4)ccc3c2)c(C(=O)O)c1`
// result NO

// query Say whether O=C(O)C(Cc1ccccc1)Oc1ccc2cc(-c3ccc(-c4ccccc4)n3Cc3ccccc3)ccc2c1 (centres unmarked) shows inhibition at 10 µM of 20% or more.
// result YES

// query Form field: inhibition at 10 µM at least 20%? Entry: `O=C(O)c1ccc(COc2ccc3cc(-c4ccc(-c5ccccc5)n4Cc4ccc(C(F)(F)F)cc4)ccc3c2)c(C(=O)O)c1`
// result YES
